# target: von Willebrand factor A1 domain (human) (Homo sapiens, UniProt P04275 SEQ:13-246)
# Sequence (P04275 1238-1471 T1381A): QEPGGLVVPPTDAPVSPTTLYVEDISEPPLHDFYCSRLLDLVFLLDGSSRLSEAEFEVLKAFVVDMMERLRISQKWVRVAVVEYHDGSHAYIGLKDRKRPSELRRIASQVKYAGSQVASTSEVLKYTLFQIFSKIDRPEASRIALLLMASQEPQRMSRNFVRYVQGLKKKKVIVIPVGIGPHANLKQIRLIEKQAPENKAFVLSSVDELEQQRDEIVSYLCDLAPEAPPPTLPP
# method_notes: filter; 100 nM protein
observation_type: binding signal

// solved cases for binding signal follow
AMX199.D8 (ssDNA) DNA: CTACCTACGATCTGACTAGCAAGGGGATTGGCTCCGGGTCTGGCGTGCTTGGCATCTTCGGCTTACTCTCATGTAGTTCC | 1.89 ratio to no protein
AMX199.G5 (ssDNA) DNA: CTACCTACGATCTGACTAGCGAAACACTAGGTTGGTTAGGATTGGTGTGTTCCCGCCCTGCTTACTCTCATGTAGTTCC | 1.41 ratio to no protein
AMX200.A11 (ssDNA) DNA: CTACCTACGATCTGACTAGCTGAGTAGTTAGTAACTTTTTATTATGGTTTGGTGGGTCTGGCTTACTCTCATGTAGTTCC | 1.49 ratio to no protein
AMX199.B6 (ssDNA) DNA: CTACCTACGATCTGACTAGCAAGGGGATTGGCTCCGGGTCTGGCGTGCTTGGTACCTCCGGCTTACTCTCATGTAGTTCC | 2.01 ratio to no protein
AMX200.E8 (ssDNA) DNA: CTACCTACGATCTGACTAGCGGAATGAGGATGCTGGTGGATTGCTCAGGTCTGTTGGCTGCTTACTCTCATGTAGTTCC | 1.04 ratio to no protein

Record AMX200.B1 (ssDNA) DNA: CTACCTACGATCTGACTAGCGGAATGAGAATGCTGATGGATTGCCCAGGTCTGCTGGCTGCTTACTCTCATGTAGTTCC . Reported binding signal: 4.01 ratio to no protein

Record AMX199.F8 (ssDNA) DNA: CTACCTACGATCTGACTAGCAAGGGGATTGGCTCCGGGTCTGGCGTGCTTGGCACCTCTGGCTTACTCTCATGTAGTTCC . Reported binding signal: 1.78 ratio to no protein
